Lab note: pIC50 readings collected with Human factor D (Homo sapiens (Human), UniProt P00746) for the following molecules.
Sequence (P00746 26-253): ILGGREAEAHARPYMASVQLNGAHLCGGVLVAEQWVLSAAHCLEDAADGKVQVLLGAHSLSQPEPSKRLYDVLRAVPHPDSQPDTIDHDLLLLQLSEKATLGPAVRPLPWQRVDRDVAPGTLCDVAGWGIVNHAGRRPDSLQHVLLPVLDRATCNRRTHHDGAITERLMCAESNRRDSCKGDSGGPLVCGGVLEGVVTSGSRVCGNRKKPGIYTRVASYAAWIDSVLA
pIC50: −log10 of the molar value.
endpoint_name: pIC50

[
  {
    "molecule": "CC(=O)c1cn(CC(=O)N2C[C@H](F)C[C@H]2c2nc3cc(Cl)ccc3[nH]2)c2ccccc12",
    "result": "< 5.00"
  },
  {
    "molecule": "CC(=O)c1cn(CC(=O)N2C[C@H](F)C[C@H]2C(=O)Nc2cccc(-c3ccccc3Cl)c2F)c2c(-c3cn[nH]c3)cccc12",
    "result": "> 6.00"
  },
  {
    "molecule": "NC(=O)n1cc(NC(=O)N2C[C@H](F)C[C@H]2C(=O)NS(=O)(=O)c2cccc(Cl)c2F)c2ccccc21",
    "result": "< 5.00"
  },
  {
    "molecule": "CC(=O)n1cc(NC(=O)[C@H]2CCCN2C(=O)NCc2cccc(Cl)c2F)c2ccccc21",
    "result": "< 5.00"
  },
  {
    "molecule": "CC(=O)c1cn(CC(=O)N2C[C@H](F)C[C@H]2C(=O)Nc2cccc(-c3cc(F)c(F)cc3Cl)c2F)c2ccccc12",
    "result": "> 6.00"
  },
  {
    "molecule": "CC(=O)c1cn(CC(=O)N2CC[C@@H](OCC3CC3)[C@H]2C(=O)NCc2cccc(Cl)c2F)c2ccccc12",
    "result": "> 6.00"
  },
  {
    "molecule": "N[C@@H](Cc1c[nH]c2ccccc12)C(=O)N1C[C@H](F)C[C@H]1C(=O)NCc1cccc(Cl)c1F",
    "result": "< 5.00"
  },
  {
    "molecule": "CC(=O)c1cn(C(C)C(=O)N2C[C@H](F)C[C@H]2C(=O)NCc2cccc(Cl)c2F)c2ccccc12 (some centres unmarked)",
    "result": "< 5.00"
  }
]
